Each item that follows carries a reported cAMP release, % activity with respect to control, at 10 µM.
# systemName: human GLP-1 receptor (human, UniProt P43220 24-463)
# protocolSummary: cell-based or functional assay
Where no end group is shown, it is not given here. [ ]: non-standard residue; d: D form. Bip(2'-Et-4'-OMe) = CCc1cc(OC)ccc1-c1ccc(C[C@H](N)C(=O)O)cc1; αMePhe(2,6-F2) = C[C@](N)(Cc1c(F)cccc1F)C(=O)O; αMePhe(2-F) = C[C@](N)(Cc1ccccc1F)C(=O)O; αMeBip(OMe) = alpha-methylated Bip(OMe); hhPhe = N[C@@H](CCCc1ccccc1)C(=O)O; αMeD = C[C@](N)(CC(=O)O)C(=O)O; αMeP = C[C@@]1(C(=O)O)CCCN1; αMeAPPA = not defined here; αMeS = C[C@](N)(CO)C(=O)O; Aib = CC(C)(N)C(=O)O
reportedProperty: cAMP release, % activity with respect to control, at 10 µM

binder="VHAQGTFT[αMeS]D[αMeBip(OMe)][hhPhe]-NH2 [Seq. ID. No. 34]" reported="99 % of control"
binder="VH[αMeP]QGT[αMePhe(2-F)]TS[αMeD][αMeBip(OMe)][hhPhe]-NH2 [Seq. ID. No. 68]" reported="98 % of control"
binder="VHAEGTFTSD[Bip(2'-Et-4'-OMe)][αMeAPPA] (not fully specified (C-terminus); printed as VHAEGTFTSD-Bip(OMe)-(αMe-APPA); reading uncertain) [Seq. ID. No. 88]" reported="97 % of control"
binder="VHSQGT[αMePhe(2,6-F2)]TSD[αMeBip(OMe)][αMeAPPA] (not fully specified (C-terminus); printed as VHSQGT-(αMe-2,6-diF-Phe)-TSD-(αMe-Bip(OMe))-(αMe-APPA); reading uncertain) [Seq. ID. No. 149]" reported="97 % of control"
binder="VH[αMeP]QGTFTSD[Bip(2'-Et-4'-OMe)][αMeAPPA] (not fully specified (C-terminus); printed as VH-(αMe-Pro)-QGTFTSD-Bip(OMe)-(αMe-APPA); reading uncertain) [Seq. ID. No. 84]" reported="98 % of control"
binder="VHAEGTFTSD[αMeBip(OMe)][hhPhe] (not fully specified (C-terminus); printed as VHAEGTFTSD-(αMe-Bip(OMe))-(APPA)) [Seq. ID. No. 12]" reported="99 % of control"
binder="VH[Aib]QGTFTS[αMeD][αMeBip(OMe)][hhPhe]-NH2 [Seq. ID. No. 59]" reported="99 % of control"
binder="VHSEGT[αMePhe(2-F)]TSD[αMeBip(OMe)][αMeAPPA] (not fully specified (C-terminus); printed as VHSEGT-(αMe-2FPhe)-TSD-(αMe-Bip(OMe))-(αMe-APPA); reading uncertain) [Seq. ID. No. 145]" reported="99 % of control"
